Data origin, for the record: patent US20250250357A1

- ASSAYED_SYSTEM: T1, human MSLN-FL-his protein (human, UniProt Q13421 296-580)
- T1 construct: Made in HEK293E cells, purified on nickel column; also called hMSLN-FL-his; human MSLN full-length protein; not shown: His tag
- T1 sequence (Q13421 other isoform, or with tags, fused parts or gaps): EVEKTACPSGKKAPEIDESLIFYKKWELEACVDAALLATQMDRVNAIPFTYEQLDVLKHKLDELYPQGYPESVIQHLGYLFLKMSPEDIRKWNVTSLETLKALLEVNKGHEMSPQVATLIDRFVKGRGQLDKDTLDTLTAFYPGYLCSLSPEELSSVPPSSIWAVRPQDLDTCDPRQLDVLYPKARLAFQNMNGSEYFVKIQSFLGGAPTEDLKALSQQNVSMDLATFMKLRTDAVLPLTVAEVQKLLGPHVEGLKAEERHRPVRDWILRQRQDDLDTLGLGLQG
- EXPERIMENT_NOTES: ELISA, coated antigen, antibody 0.0002 nM
PROPERTY_LABEL: OD450
Give the value as a plain number.

Reference set (2 entries):
>>> measurement("S009-F7.67.12 chimeric antibody (antibody, human IgG1, kappa, V domains shown, Human-murine chimeric antibody, human IgG1/kappa constant regions) VH: QVQLQQPGTELVKPGASVRLSCRASGYSFSSYWMHWVKQRPGQGLEWLGNINPTTGDINYNEKFRNRATLAVDKSSTTAYLQLTSLTSEDSAVYFCVRHDGFLWGQGTTLTVSS VL: DIQMTQSPASLSASVGETVTITCRASENIYSYLAWYQQKQGKSPQLLVYYAKTLAEGVSSRFSGSGSGTQFSLKINSLQPEDFGTYYCQHQFGTPRTFGGGTKLEIRR")
0.13
>>> measurement("S009-F7.48.1 chimeric antibody (antibody, human IgG1, kappa, V domains shown, Human-murine chimeric antibody, human IgG1/kappa constant regions) VH: QVQLQQPGTELVKPGASVKLSCKASGYTFTSYWMHWVKQRPGQGLEWIGNINPSNGGTNNNENFKSKATLTVDTSSSTAYMQLSSLTSEDSAVYYCVRNGYHGYWYFDVWGTGTTVTVSS VL: DIVMTQSQKFMSTSVGDRVSVTCKASQNVGTNVAWYQQQPGQSPKALIYSASYRYSGVPDRFTGSVSGTDFTLTISNVQSEDLAEYFCQQYNSYPLTFGGGTKLEIKR")
0.09

Exam item: Suppose we examine the binder S009-F7.44.20 chimeric antibody (antibody, human IgG1, kappa, V domains shown, Human-murine chimeric antibody, human IgG1/kappa constant regions) VH: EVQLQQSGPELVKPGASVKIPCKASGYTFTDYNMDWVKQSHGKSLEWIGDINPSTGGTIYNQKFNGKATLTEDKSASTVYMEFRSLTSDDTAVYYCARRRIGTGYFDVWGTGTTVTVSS VL: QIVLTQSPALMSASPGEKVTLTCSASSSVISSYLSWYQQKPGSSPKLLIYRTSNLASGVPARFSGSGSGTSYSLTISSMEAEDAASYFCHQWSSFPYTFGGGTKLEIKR ; what OD450 value has been reported?
Marked response: 0.26
